Tested on: hT40, dGA, dGAE and truncated tau fragments
Test Details: Binding ELISA / epitope mapping of anti-tau scAbs with truncated tau proteins and 13mer peptides
Parameters: species or system human
Condition Context: Table 16; NS, S and M clones; incl. 13mer peptides
Measured Shortest region bound on hT40 accompanies every entry in the list below.

{"Molecule": "ME12: sheep-derived anti-tau clone, CDRs in Table 1 (protein, VHCDR1 ME12, NS3D9; VHCDR1 S1D2, S1H6, S2C3; VHCDR1 MC5, MD12; VHCDR1 3aA6, VHCDR1 CE3; VHCDR2 ME12; VHCDR3 ME12; VLCDR1 S1D12, ME12; VLCDR2 ME12; VLCDR3 ME12) CDR 1: SNAVG CDR 2: GCSSDGKCYHNSALKS CDR 3: GFYSIYGYDYSGTIDY CDR 4: SGSSSNVGGGNSVG CDR 5: NTNSRPS CDR 6: VTGDSSTHDDL", "Shortest region bound on hT40": "337-355"}
{"Molecule": "S1E12: anti-tau clone, Table 11; SEQ ID NO: 218 (protein, S1E12 amino acid sequence) scFv: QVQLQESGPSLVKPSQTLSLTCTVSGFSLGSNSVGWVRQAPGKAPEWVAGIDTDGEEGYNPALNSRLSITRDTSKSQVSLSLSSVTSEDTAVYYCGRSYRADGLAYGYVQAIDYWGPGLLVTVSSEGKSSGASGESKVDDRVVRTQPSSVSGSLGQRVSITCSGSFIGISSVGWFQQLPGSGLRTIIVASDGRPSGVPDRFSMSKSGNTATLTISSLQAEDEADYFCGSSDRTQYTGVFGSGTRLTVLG", "Shortest region bound on hT40": "297-390"}

Next item in the queue.
response.value for S2C6: anti-tau clone, Table 2; SEQ ID NO: 416 (protein, S2C6 amino acid sequence) scFv: QVQLQESGPSLVKPSQTLSLTCTVSGFSLISNSVGWVRQAPGKAPEWVAGIDTDGEEGYNPALKSQYAASDPDTSKSQVSLSLSSVTSEDTAVYYCGRTYRTDGFAYGYVQAIDYWGPGLLLTISSEGKSSGASGESKVDDQAVLTQPSSVSGSLGQRVSITCSGSFIGISSVGWFQQLPGSGLRTIIVASDGRPSGVPDRFSMSKSGNTATLTISSLQAEDEADYFCGSSDRTQYTGVFGSGTRLTVLG (field: Shortest region bound on hT40) = 367-379
